Reported Percent Effect values follow for various compounds
tested on: Mycobacterium tuberculosis; assay: Cornell M. t heat shock assay; type: functional, organism-based; set-up: dose or concentration left out as unconfirmed; further: in the data most compounds retested in dose-response had high values
Among all 69,000 compounds or so, about 950 (1.4%) showed an effect of 50% or more. For the sample, strong results were picked, then their nearest neighbours and some compounds at random.
Give a bare numeral; the unit % is implied.

Problem: Recorded Percent Effect of CN1CCCCC1c1ncc2c(n1)CCN(Cc1ccccc1Cl)C2 (centres undefined) , please.
Result: 87.15

Problem: And then Cl.Clc1ccccc1CN1CCc2nc(C3CCCCN3)ncc2C1 (centres undefined) , what is it?
Result: 12.35

* * *

Reported Percent Effect values follow for various molecules
test system: Mycobacterium tuberculosis; assay: Cornell M. t heat shock assay; format: functional, organism-based; design: dose or concentration left out as unconfirmed; further: in the data most compounds retested in dose-response had high values
In all, about 69,000 compounds went through this assay and about 950 (1.4%) showed an effect of 50% or more. The sample as a whole holds a higher share of strong results than the screen did.

Observe how each entry below is paired with its result.
# molecule, Percent Effect
records = [
    ("Cc1cc(N(C)Cc2c(C)noc2C)n2nc(C)c(C)c2n1", "-31.35%"),
    ("CC(=O)N1[C@H](CN(C)C)C[C@@H]2CN(C(=O)c3cnc(C)cn3)CC[C@@H]21.O=C(O)C(F)(F)F", "-17.11%"),
    ("CC(C)Cc1nc(CN(C)c2cc(C(C)C)nc3ccnn23)no1", "23.84%"),
    ("CO[C@@H]1CCN(Cc2ccoc2)C[C@@H]1Cc1ccccc1.O=C(O)C(F)(F)F", "28.11%"),
]

Problem: Form entry - test system: Mycobacterium tuberculosis; read-out: Percent Effect; molecule: Cc1nnc(N2CCCC3(CN(Cc4cccnc4)CCO3)C2)o1.O=C(O)C(F)(F)F.O=C(O)C(F)(F)F.O=C(O)C(F)(F)F (stereo unspecified)
Result: -2.58%

Problem: And then `CCNC(=O)NCc1nn(CCN2CCCC2)c(=O)c2ccccc12` , what is it?
Result: 41.46%

Problem: And then `O=C(O)C(F)(F)F.O=C([C@H]1C[C@@H]2CCN(C3CCOCC3)C[C@H]2O1)N1CCCC1` , what is it?
Result: -29.11%

* * *

tested on: Mycobacterium tuberculosis; assay: Cornell M. t heat shock assay; format: functional, organism-based; design: dose or concentration left out as unconfirmed; further: in the data most compounds retested in dose-response had high values
Hit rate of the full screen: of about 69,000 compounds, about 950 (1.4%) showed an effect of 50% or more. Shown is part of a subset that was picked to be rich in strong results.
measured_quantity: Percent Effect (%)
Give a bare numeral; the unit % is implied.

Observe how each entry below is paired with its result.
# compound, value_units, measured_result
rows = [
    ("O=S(=O)(c1ccccc1)N1C(CN2CCOCC2)[C@]2(O)CC[C@H]1CC2 (some centres not stated)", "%", -28.69),
    ("CN(C)C(=O)CO[C@H]1CN(Cc2ccsc2)[C@@H]2COC[C@H]12.O=C(O)C(F)(F)F", "%", 37.89),
    ("CN(C)S(=O)(=O)N1CCC[C@]2(C[C@@H](Oc3ncccc3F)CO2)C1.O=C(O)C(F)(F)F", "%", -8.336),
]

Problem: Recorded Percent Effect of CNc1cncc(C2CCCN2Cc2ccnc(C)n2)n1 (configuration not stated) , please.
Result: -20.32

* * *

system: Mycobacterium tuberculosis; assay: Cornell M. t heat shock assay; assay type: functional, organism-based; parameters: dose or concentration left out as unconfirmed; further: in the data most compounds retested in dose-response had high values
Screen size: about 69,000 compounds; about 950 (1.4%) showed an effect of 50% or more. The sample as a whole holds a higher share of strong results than the screen did.
Reported Percent Effect values follow for various molecules
Give a bare numeral; the unit % is implied.

Observe how each entry below is paired with its result.
# molecule, Percent Effect, %
records = [
    ("CCCNC(=O)c1cc2c(s1)CCN2C(=O)CN(C)C.O=C(O)C(F)(F)F", 1.454),
    ("Cn1cnc2ccc(NC(=O)CCCn3cccn3)cc2c1=O", 5.614),
]

Consider the record given below.
Problem: Form entry - test system: Mycobacterium tuberculosis; read-out: Percent Effect; molecule: COCC1COCCC12CCN(Cc1nccs1)CC2.O=C(O)C(F)(F)F (stereo not drawn)
Result: 8.236

* * *

tested on: Mycobacterium tuberculosis; assay: Cornell M. t heat shock assay; format: functional, organism-based; design: dose or concentration left out as unconfirmed; further: in the data most compounds retested in dose-response had high values
In all, about 69,000 compounds went through this assay and about 950 (1.4%) showed an effect of 50% or more. This is one part of a sample in which strong results are shown more often than they occur.
Reported Percent Effect values follow for various compounds
Give a bare numeral; the unit % is implied.

Observe how each entry below is paired with its result.
# compound, value_units, Percent Effect
rows = [
    ("CCCc1nc(CNC(=O)Cc2csc(C)n2)cs1", "%", 8.263),
    ("Cc1nc(NCc2noc(C3CCCO3)n2)c2sccc2n1 (configuration not stated)", "%", -5.869),
    ("Cc1nc2c(c(NCc3nc4ccccc4s3)n1)CCNCC2", "%", 105.4),
    ("O=C(O)C(F)(F)F.c1csc(CN2CCc3nnc(COc4cncnc4)n3CC2)c1", "%", -24.48),
    ("Cc1cc2cccc(NC(=O)N3CC[C@@H]4CC[C@H](C3)N4C)c2o1", "%", 25.84),
]

Problem: Recorded Percent Effect of `Cc1nc2c(c(NCc3ccc(-c4ccccn4)s3)n1)CCNCC2` , please.
Result: -21.22

* * *

tested on: Mycobacterium tuberculosis; assay: Cornell M. t heat shock assay; assay type: functional, organism-based; parameters: dose or concentration left out as unconfirmed; further: in the data most compounds retested in dose-response had high values
The whole screen tested about 69,000 compounds, of which about 950 (1.4%) showed an effect of 50% or more. This excerpt belongs to a sample that is enriched for strong results.
measured_quantity: Percent Effect (%)
Give a bare numeral; the unit % is implied.

# molecule, assayed_target, measured_result
measured = [
    ("CC(C)NC(=O)CN1CCC(c2cccc(F)c2)C1 (configuration not stated)", "Mycobacterium tuberculosis", -24.09),
    ("CN1CCC(c2nnc3ccc(C(=O)NC4CCCC4)cn23)C1.O=C(O)C(F)(F)F (configuration not stated)", "Mycobacterium tuberculosis", -23.72),
    ("CC(C)C(NC(=O)Nc1ccc(F)cc1)C(=O)N(C)C (configuration not stated)", "Mycobacterium tuberculosis", 54.32),
]

Problem: Recorded Percent Effect of Cc1cc(N2CCCC2c2nnc3n2CCCCC3)nc(N)n1 (configuration not stated) , please.
Result: -8.114

* * *

test system: Mycobacterium tuberculosis; assay: Cornell M. t heat shock assay; assay type: functional, organism-based; design: dose or concentration left out as unconfirmed; further: in the data most compounds retested in dose-response had high values
In all, about 69,000 compounds went through this assay and about 950 (1.4%) showed an effect of 50% or more. The list comes from a sample in which strong results are over-represented; it also holds close analogues and randomly drawn compounds.
measured_quantity: Percent Effect (%)
Give a bare numeral; the unit % is implied.

# compound, measured_quantity, measured_result
rows = [
    ("COc1cc(C(=O)NS(=O)(=O)c2cncc(Br)c2)cc(Cl)c1OC", "Percent Effect", -14.73),
    ("COC(=O)CNC(=O)CC1COc2ccc(C(=O)N(C)C)cc2N1C (stereo not given)", "Percent Effect", 7.778),
    ("NC[C@H]1CC[C@H](C(NC(=O)c2ccccn2)c2ccccn2)CC1 (stereo not given in full)", "Percent Effect", 11.19),
    ("CN(CCOc1cccc(F)c1)CC(=O)Nc1ccncc1", "Percent Effect", -17.11),
    ("c1ccc(-c2cc(CN3CCCC(Cn4cncn4)C3)on2)cc1 (stereo not given)", "Percent Effect", -1.952),
    ("Cc1ncsc1CN1C[C@H](C(=O)NCC2CC2)[C@@H]2CCO[C@@H]2C1.O=C(O)C(F)(F)F", "Percent Effect", -4.533),
]

Problem: Recorded Percent Effect of `O=C(O)C(F)(F)F.O=C(O)C(F)(F)F.O=C(c1ccco1)N1C[C@@H]2OCCN(CCN3CCCC3)[C@@H]2C1` , please.
Result: -4.474

Problem: And then `Cc1sc(NC(=O)CN(C)CCOc2cccc(F)c2)c(C)c1C` , what is it?
Result: 3.214

Problem: And then COCC1CN(c2ncc(F)cn2)Cc2cnn(C)c21.O=C(O)C(F)(F)F.O=C(O)C(F)(F)F (stereo not given) , what is it?
Result: 9.404

Problem: And then CCn1ncc2c1C(COC)CN(c1ncc(F)cn1)C2.O=C(O)C(F)(F)F.O=C(O)C(F)(F)F (stereo not given) , what is it?
Result: 55.18

Problem: And then COc1cccc(C(=O)NC(c2ccccn2)[C@H]2CC[C@H](CN)CC2)c1 (stereo not given in full) , what is it?
Result: 14.74

Problem: And then `c1ccc(-c2nnc(CN3C[C@@H]4CC[C@H](C3)N(CC3CCC3)C4)o2)cc1` , what is it?
Result: 64.4

Problem: And then `O=C(c1ccc(-c2cccc3c2CCNC3)o1)N1CCOCC1` , what is it?
Result: 23.74

Problem: And then `Cc1noc(C)c1CN1CCO[C@H]2CN(Cc3ccc(F)cc3)C[C@H]21.O=C(O)C(F)(F)F.O=C(O)C(F)(F)F` , what is it?
Result: -6.13

Problem: And then `COc1ccc(CN2CC[C@H]3[C@H]2CCN3C(=O)c2cnn(C)c2)cc1.O=C(O)C(F)(F)F` , what is it?
Result: 1.435

Problem: And then `Cc1nsc(NCCNS(=O)(=O)c2ccccc2)n1` , what is it?
Result: -4.682

Problem: And then `CCc1nc(C)cc(N2CCN(C(=O)[C@@H]3C[C@@H]4C=C[C@H]3C4)CC2)n1` , what is it?
Result: -1.962

Problem: And then NC[C@H]1CC[C@H](C(NC(=O)C2CC2)c2ccccn2)CC1 (stereo not given in full) , what is it?
Result: -11.64

Problem: And then `c1ccc(-c2cc(CN3C[C@@H]4CC[C@H](C3)N(CC3CCC3)C4)on2)cc1` , what is it?
Result: 105.8
